Attribution: PubChem BioAssay (NCI)

Test system: CAKI-1 renal
PROTOCOL_DETAILS: NCI tumour cell line growth inhibition, 48 h
PROPERTY_MEASURED: TGI (µM)
Numeric answer only, unit µM assumed.

Ask | Please report the measured TGI for `CCCCCCCCCCCCCCCCCC(=O)[O][Sn]([CH2]CCC)([CH2]CCC)[CH2]CCC`
Reply | 0.214

Ask | Give the reported value of TGI for this record: `C=C1CCCC(C)(C)[C@@H]1CC/C(C)=C/Cn1c2cccc(=O)c-2nc2ccccc21`
Reply | 10.7

Ask | Output TGI of COC1OC(COCc2ccc(Cl)cc2)C(OCc2ccc(Cl)cc2)C1O (stereo not given)
Reply | 54.2
